Readings of IC50 for the listed molecules
Target: full-length beta-Catenin (Uniprot ID P35222) (Homo sapiens, UniProt P35222)
Construct: 10 nM full-length beta-Catenin (Uniprot ID P35222)
Sequence (P35222 whole entry): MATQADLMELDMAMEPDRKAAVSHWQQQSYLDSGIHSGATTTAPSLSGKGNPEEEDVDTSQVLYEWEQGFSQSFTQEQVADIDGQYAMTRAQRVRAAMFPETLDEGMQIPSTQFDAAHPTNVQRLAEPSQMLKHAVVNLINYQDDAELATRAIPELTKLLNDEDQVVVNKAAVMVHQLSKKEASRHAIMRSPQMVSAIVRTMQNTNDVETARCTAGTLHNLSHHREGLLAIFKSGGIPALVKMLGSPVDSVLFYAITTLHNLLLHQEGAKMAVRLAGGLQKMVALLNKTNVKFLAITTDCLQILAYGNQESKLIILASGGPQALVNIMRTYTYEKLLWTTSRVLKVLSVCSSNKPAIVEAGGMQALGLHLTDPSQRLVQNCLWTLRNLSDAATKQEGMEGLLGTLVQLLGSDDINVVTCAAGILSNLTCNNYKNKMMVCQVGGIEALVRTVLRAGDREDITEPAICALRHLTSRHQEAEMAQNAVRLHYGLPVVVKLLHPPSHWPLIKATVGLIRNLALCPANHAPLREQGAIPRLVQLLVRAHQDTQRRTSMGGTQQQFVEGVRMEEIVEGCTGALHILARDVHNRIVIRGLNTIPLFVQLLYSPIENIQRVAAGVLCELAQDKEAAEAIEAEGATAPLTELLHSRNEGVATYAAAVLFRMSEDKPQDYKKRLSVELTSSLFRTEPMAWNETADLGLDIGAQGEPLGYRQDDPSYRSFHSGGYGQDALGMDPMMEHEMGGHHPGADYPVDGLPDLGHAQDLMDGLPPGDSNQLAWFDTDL
Assay: Fluorescence polarization IC50 (beta-catenin / 5FAM-TCF4 10-53 competition)
Assay type: binding
Conditions: fluorescence polarization; read-out: beta-Catenin FP IC50
# output: bare number, implied unit nM

* CC(=O)N1CCC[C@]12CC=CCCCC1(CCCC=CCCCOC(=O)N3CC[C@@](C(=O)N[C@@H](Cc4ccccc4)C(=O)N[C@@H](Cc4csc5ccccc45)C(=O)N[C@@H](CCO)C(N)=O)(C3)NC(=O)[C@H](CC(N)=O)NC(=O)[C@H](Cc3cccc(Cl)c3)NC(=O)[C@H](C)NC(=O)[C@H](CCCCNC(C)C)NC(=O)[C@H](CCC(N)=O)NC(=O)[C@H](CC(=O)O)NC1=O)NC(=O)[C@H](CC1CCCCC1)NC(=O)[C@H](CC(N)=O)NC2=O (some centres unmarked) | 1610

Here is the next item to consider.
Please supply the value of reported IC50 for the item CC[C@H](C)[C@@H]1NC(=O)[C@H](CC(=O)O)NC(=O)[C@]2(CC=CCCCC3(CCCC=CCCCCCC[C@@](C)(C(=O)N[C@@H](Cc4ccccc4C(N)=O)C(=O)N[C@@H](Cc4csc5ccccc45)C(=O)N[C@@H](Cc4c[nH]cn4)C(N)=O)NC(=O)[C@H](CC(N)=O)NC(=O)[C@H](Cc4ccccc4)NC(=O)[C@H](C)NC(=O)[C@H](C)NC(=O)[C@H](CCC(=O)O)NC(=O)[C@H](CC(=O)O)NC3=O)NC1=O)CCCN2C(C)=O (some centres unmarked)
30

Reference source: patent US20240116985A1
